Reported log Ks values for a set of compounds
- method: Binding affinity to poly G-poly C (unknown origin) assessed as binding constant at pH7 by UV/vis titration
Number, no unit, nothing else.

Nc1ccc2nc(-c3ccc(C4=NCCN4)cc3)sc2c1
5.1
Nc1ccc(-c2nc3ccc(C4=NCCN4)cc3s2)cc1
4.89
N=C(N)c1ccc(-c2nc3ccc(N)cc3s2)cc1
4.4

**Query** Recall and state the measured log Ks for N=C(N)c1ccc2nc(-c3ccc(N)cc3)sc2c1 .
**Result** 4.5

###

Reported Activity values for a set of molecules
- method: Binding affinity to poly C (unknown origin) assessed as spectral changes by UV/vis spectra
Please state the figure in %; there is no need to write the unit.

Some solved cases for reference:
Nc1ccc2nc(-c3ccc(C4=NCCN4)cc3)sc2c1
16.5
N=C(N)c1ccc(-c2nc3ccc(N)cc3s2)cc1
13
N=C(N)c1ccc2nc(-c3ccc(N)cc3)sc2c1
13.6

**Query** Recall and state the measured Activity for Nc1ccc(-c2nc3ccc(C4=NCCN4)cc3s2)cc1 .
**Result** 16.3

###

Reported log Ks values for a set of molecules
- method: Binding affinity to poly C (unknown origin) assessed as binding constant at pH7 by UV/vis titration
Number, no unit, nothing else.

Some solved cases for reference:
Nc1ccc2nc(-c3ccc(C4=NCCN4)cc3)sc2c1
5.23
Nc1ccc(-c2nc3ccc(C4=NCCN4)cc3s2)cc1
5.11
N=C(N)c1ccc(-c2nc3ccc(N)cc3s2)cc1
4.19

Moving on to another molecule below.
**Query** Recall and state the measured log Ks for N=C(N)c1ccc2nc(-c3ccc(N)cc3)sc2c1 .
**Result** 4.57

###

- method: Binding affinity to poly A-poly U (unknown origin) assessed as spectral changes at pH7 by UV/vis spectra
Reported Activity values for a set of molecules
Please state the figure in %; there is no need to write the unit.

Some solved cases for reference:
Nc1ccc(-c2nc3ccc(C4=NCCN4)cc3s2)cc1
55.5
Nc1ccc2nc(-c3ccc(C4=NCCN4)cc3)sc2c1
53.1
N=C(N)c1ccc(-c2nc3ccc(N)cc3s2)cc1
45.5

Moving on to another molecule below.
**Query** Recall and state the measured Activity for N=C(N)c1ccc2nc(-c3ccc(N)cc3)sc2c1 .
**Result** 71.6

###

Reported ΔTm values for a set of compounds
- Test system: Calf thymus DNA
- method: Binding affinity to calf thymus DNA assessed as change in melting temperature at pH7
- Format: nucleic-acid assay
- condition.notes: Bos taurus
Please state the figure in °C; there is no need to write the unit.

Some solved cases for reference:
Nc1ccc2nc(-c3ccc(C4=NCCN4)cc3)sc2c1
0
N=C(N)c1ccc2nc(-c3ccc(N)cc3)sc2c1
0.7
N=C(N)c1ccc(-c2nc3ccc(N)cc3s2)cc1
0

Moving on to another compound below.
**Query** Recall and state the measured ΔTm for Nc1ccc(-c2nc3ccc(C4=NCCN4)cc3s2)cc1 .
**Result** 0.7

###

- method: Binding affinity to poly U (unknown origin) assessed as binding constant at pH7 by UV/vis titration
Reported log Ks values for a set of compounds
Number, no unit, nothing else.

Some solved cases for reference:
N=C(N)c1ccc(-c2nc3ccc(N)cc3s2)cc1
5.15
N=C(N)c1ccc2nc(-c3ccc(N)cc3)sc2c1
4.81
Nc1ccc2nc(-c3ccc(C4=NCCN4)cc3)sc2c1
4.43

Moving on to another compound below.
**Query** Recall and state the measured log Ks for Nc1ccc(-c2nc3ccc(C4=NCCN4)cc3s2)cc1 .
**Result** 4.77

###

- method: Binding affinity to poly(dA-dT)2 (unknown origin) assessed as binding constant at pH7 by UV/vis titration
Reported log Ks values for a set of molecules
Number, no unit, nothing else.

Some solved cases for reference:
N=C(N)c1ccc2nc(-c3ccc(N)cc3)sc2c1
5.09
N=C(N)c1ccc(-c2nc3ccc(N)cc3s2)cc1
5.04
Nc1ccc(-c2nc3ccc(C4=NCCN4)cc3s2)cc1
5.41

**Query** Recall and state the measured log Ks for Nc1ccc2nc(-c3ccc(C4=NCCN4)cc3)sc2c1 .
**Result** 5.19

###

- method: Binding affinity to poly A-poly U (unknown origin) assessed as binding constant at pH7 by UV/vis titration
measure: log Ks
Number, no unit, nothing else.

N=C(N)c1ccc2nc(-c3ccc(N)cc3)sc2c1
4.55
Nc1ccc2nc(-c3ccc(C4=NCCN4)cc3)sc2c1
4.94
Nc1ccc(-c2nc3ccc(C4=NCCN4)cc3s2)cc1
5.44

Moving on to another compound below.
**Query** Recall and state the measured log Ks for N=C(N)c1ccc(-c2nc3ccc(N)cc3s2)cc1 .
**Result** 4.5

###

Reported Activity values for a set of compounds
- method: Binding affinity to poly A (unknown origin) assessed as spectral changes by UV/vis spectra
Please state the figure in %; there is no need to write the unit.

Some solved cases for reference:
N=C(N)c1ccc2nc(-c3ccc(N)cc3)sc2c1
23
N=C(N)c1ccc(-c2nc3ccc(N)cc3s2)cc1
24.3
Nc1ccc(-c2nc3ccc(C4=NCCN4)cc3s2)cc1
22.2

**Query** Recall and state the measured Activity for Nc1ccc2nc(-c3ccc(C4=NCCN4)cc3)sc2c1 .
**Result** 29.5

###

- method: Binding affinity to poly A-poly U (unknown origin) assessed as change in melting temperature at pH7
measure: ΔTm (°C)
Please state the figure in °C; there is no need to write the unit.

**Query** Recall and state the measured ΔTm for N=C(N)c1ccc(-c2nc3ccc(N)cc3s2)cc1 .
**Result** 1

**Query** Recall and state the measured ΔTm for N=C(N)c1ccc2nc(-c3ccc(N)cc3)sc2c1 .
**Result** 1.3

**Query** Recall and state the measured ΔTm for Nc1ccc(-c2nc3ccc(C4=NCCN4)cc3s2)cc1 .
**Result** 3.9

**Query** Recall and state the measured ΔTm for Nc1ccc2nc(-c3ccc(C4=NCCN4)cc3)sc2c1 .
**Result** 1.3

###

- method: Solubility of the compound in water at 22 degC
- Assay type: physicochemical
// criterion not met strictly below 3000 µg/mL in solubility; criterion met otherwise

Cl.N=C(N)c1ccc(-c2nc3ccc(N)cc3s2)cc1.O
criterion not met

# input for lookup
**Query** State whether the measured solubility reaches 3000 µg/mL, counting equality as reaching it, for CS(=O)(=O)O.N=C(N)c1ccc2nc(-c3ccc(N)cc3)sc2c1.O
**Result** criterion not met

###

Reported Activity values for a set of compounds
- method: Binding affinity to poly G-poly C (unknown origin) assessed as spectral changes at pH7 by UV/vis spectra
Please state the figure in %; there is no need to write the unit.

Nc1ccc(-c2nc3ccc(C4=NCCN4)cc3s2)cc1
30
Nc1ccc2nc(-c3ccc(C4=NCCN4)cc3)sc2c1
23.9
N=C(N)c1ccc(-c2nc3ccc(N)cc3s2)cc1
25.3

Moving on to another compound below.
**Query** Recall and state the measured Activity for N=C(N)c1ccc2nc(-c3ccc(N)cc3)sc2c1 .
**Result** 20.3

###

- method: Binding affinity to poly(dA-dT)2 (unknown origin) assessed as change in melting temperature at pH7
measure: ΔTm (°C)
Please state the figure in °C; there is no need to write the unit.

N=C(N)c1ccc2nc(-c3ccc(N)cc3)sc2c1
2.8
Nc1ccc2nc(-c3ccc(C4=NCCN4)cc3)sc2c1
2.1
N=C(N)c1ccc(-c2nc3ccc(N)cc3s2)cc1
2

Moving on to another molecule below.
**Query** Recall and state the measured ΔTm for Nc1ccc(-c2nc3ccc(C4=NCCN4)cc3s2)cc1 .
**Result** 2.7

###

- method: Binding affinity to poly A (unknown origin) assessed as binding constant at pH7 by UV/vis titration
measure: log Ks
Number, no unit, nothing else.

Some solved cases for reference:
N=C(N)c1ccc2nc(-c3ccc(N)cc3)sc2c1
4.3
Nc1ccc(-c2nc3ccc(C4=NCCN4)cc3s2)cc1
5.6
N=C(N)c1ccc(-c2nc3ccc(N)cc3s2)cc1
3.99

Moving on to another molecule below.
**Query** Recall and state the measured log Ks for Nc1ccc2nc(-c3ccc(C4=NCCN4)cc3)sc2c1 .
**Result** 4.83

###

Reported log Ks values for a set of compounds
- method: Binding affinity to poly G (unknown origin) assessed as binding constant at pH7 by UV/vis titration
Number, no unit, nothing else.

Nc1ccc(-c2nc3ccc(C4=NCCN4)cc3s2)cc1
6.46
N=C(N)c1ccc2nc(-c3ccc(N)cc3)sc2c1
4.85

**Query** Recall and state the measured log Ks for N=C(N)c1ccc(-c2nc3ccc(N)cc3s2)cc1 .
**Result** 4.6

**Query** Recall and state the measured log Ks for Nc1ccc2nc(-c3ccc(C4=NCCN4)cc3)sc2c1 .
**Result** 5.61

###

Reported log Ks values for a set of compounds
- System: Calf thymus DNA
- method: Binding affinity to calf thymus DNA assessed as binding constant at pH7 by UV/vis titration
- Format: nucleic-acid assay
- condition.notes: Bos taurus
Number, no unit, nothing else.

Some solved cases for reference:
Nc1ccc(-c2nc3ccc(C4=NCCN4)cc3s2)cc1
5.23
N=C(N)c1ccc2nc(-c3ccc(N)cc3)sc2c1
4.46
N=C(N)c1ccc(-c2nc3ccc(N)cc3s2)cc1
4.48

**Query** Recall and state the measured log Ks for Nc1ccc2nc(-c3ccc(C4=NCCN4)cc3)sc2c1 .
**Result** 4.77
